test: Solubility in simulated intestinal fluids (FaSSIF/FeSSIF); settings: fed state simulated intestinal fluid (FeSSIF), 25 °C, fessif, thermodynamic from solid
observation type: solubility (µg/mL)

Sample answers from the record:
CC(C)(C#Cc1ccc(-c2ccc(Cl)c3c(N(C(=O)NCCNC(=N)N)S(C)(=O)=O)nn(CC(F)(F)F)c23)c([C@H](Cc2cc(F)cc(F)c2)NC(=O)Cn2nc(C(F)(F)F)c3c2C(F)(F)[C@@H]2C[C@H]32)n1)S(C)(=O)=O = 68
CC(C)(C#Cc1ccc(-c2ccc(Cl)c3c(N(C(=O)OCCNC(=N)N)S(C)(=O)=O)nn(CC(F)(F)F)c23)c([C@H](Cc2cc(F)cc(F)c2)NC(=O)Cn2nc(C(F)(F)F)c3c2C(F)(F)[C@@H]2C[C@H]32)n1)S(C)(=O)=O = 153
CN(CCCC(=O)O)C(=O)N(c1nn(CC(F)(F)F)c2c(-c3ccc(C#CC(C)(C)S(C)(=O)=O)nc3[C@H](Cc3cc(F)cc(F)c3)NC(=O)Cn3nc(C(F)(F)F)c4c3C(F)(F)[C@@H]3C[C@H]43)ccc(Cl)c12)S(C)(=O)=O = 3
CN(CCC(=O)O)C(=O)N(c1nn(CC(F)(F)F)c2c(-c3ccc(C#CC(C)(C)S(C)(=O)=O)nc3[C@H](Cc3cc(F)cc(F)c3)NC(=O)Cn3nc(C(F)(F)F)c4c3C(F)(F)[C@@H]3C[C@H]43)ccc(Cl)c12)S(C)(=O)=O = 1
CC(C)(C#Cc1ccc(-c2ccc(Cl)c3c(N(C(=O)OC[C@H](CC(=O)O)NC(=O)C(=O)O)S(C)(=O)=O)nn(CC(F)(F)F)c23)c([C@H](Cc2cc(F)cc(F)c2)NC(=O)Cn2nc(C(F)(F)F)c3c2C(F)(F)[C@@H]2C[C@H]32)n1)S(C)(=O)=O = 427
C[C@@H](N)C(=O)OCN(c1nn(CC(F)(F)F)c2c(-c3ccc(C#CC(C)(C)S(C)(=O)=O)nc3[C@H](Cc3cc(F)cc(F)c3)NC(=O)Cn3nc(C(F)(F)F)c4c3C(F)(F)[C@@H]3C[C@H]43)ccc(Cl)c12)S(C)(=O)=O = 89
CC(C)(C#Cc1ccc(-c2ccc(Cl)c3c(N(C(=O)OCCC(C(=O)O)C(=O)O)S(C)(=O)=O)nn(CC(F)(F)F)c23)c([C@H](Cc2cc(F)cc(F)c2)NC(=O)Cn2nc(C(F)(F)F)c3c2C(F)(F)[C@@H]2C[C@H]32)n1)S(C)(=O)=O = 218
CC(C)(C#Cc1ccc(-c2ccc(Cl)c3c(N(COC(=O)CN)S(C)(=O)=O)nn(CC(F)(F)F)c23)c([C@H](Cc2cc(F)cc(F)c2)NC(=O)Cn2nc(C(F)(F)F)c3c2C(F)(F)[C@@H]2C[C@H]32)n1)S(C)(=O)=O = 120

(1) CC(C)(C#Cc1ccc(-c2ccc(Cl)c3c(N(C(=O)N(CCNC(=O)OCOP(=O)(O)O)CCC(=O)O)S(C)(=O)=O)nn(CC(F)(F)F)c23)c([C@H](Cc2cc(F)cc(F)c2)NC(=O)Cn2nc(C(F)(F)F)c3c2C(F)(F)[C@@H]2C[C@H]32)n1)S(C)(=O)=O
(2) CC(C)(C#Cc1ccc(-c2ccc(Cl)c3c(N(C(=O)N[C@@H](CC(=O)O)C(=O)O)S(C)(=O)=O)nn(CC(F)(F)F)c23)c([C@H](Cc2cc(F)cc(F)c2)NC(=O)Cn2nc(C(F)(F)F)c3c2C(F)(F)[C@@H]2C[C@H]32)n1)S(C)(=O)=O
Lab note: record which item had the higher solubility, 1 or 2 . # reply format: chosen label
1
(1: 1720 µg/mL, 2: 247 µg/mL)

(A) CC(C)(C#Cc1ccc(-c2ccc(Cl)c3c(N(C(=O)N[C@@H](COC(=O)C(=O)O)C(=O)O)S(C)(=O)=O)nn(CC(F)(F)F)c23)c([C@H](Cc2cc(F)cc(F)c2)NC(=O)Cn2nc(C(F)(F)F)c3c2C(F)(F)[C@@H]2C[C@H]32)n1)S(C)(=O)=O
(B) CN(CC(=O)O)C(=O)N(c1nn(CC(F)(F)F)c2c(-c3ccc(C#CC(C)(C)S(C)(=O)=O)nc3[C@H](Cc3cc(F)cc(F)c3)NC(=O)Cn3nc(C(F)(F)F)c4c3C(F)(F)[C@@H]3C[C@H]43)ccc(Cl)c12)S(C)(=O)=O
From the recorded data, which exceeds the other in solubility: A or B ? Give the label under which the chosen entry appears.
A

###

conditions: 1×PBS buffer (pH 7.4), 1.0% DMSO, 24-hour incubation at ambient temperature, maximum theoretical 100 μM; second value of the cell
observation type: pH 7 solubility (μM)

CC(C)(C#Cc1ccc(-c2ccc(Cl)c3c(N(C(=O)N[C@@H](COP(=O)(O)O)C(=O)O)S(C)(=O)=O)nn(CC(F)(F)F)c23)c([C@H](Cc2cc(F)cc(F)c2)NC(=O)Cn2nc(C(F)(F)F)c3c2C(F)(F)[C@@H]2C[C@H]32)n1)S(C)(=O)=O = 21
CC(C)(C#Cc1ccc(-c2ccc(Cl)c3c(N(C(=O)N[C@@H](CCC(=O)O)C(=O)O)S(C)(=O)=O)nn(CC(F)(F)F)c23)c([C@H](Cc2cc(F)cc(F)c2)NC(=O)Cn2nc(C(F)(F)F)c3c2C(F)(F)[C@@H]2C[C@H]32)n1)S(C)(=O)=O = 18
CC(C)(C#Cc1ccc(-c2ccc(Cl)c3c(N(COP(=O)(O)O)S(C)(=O)=O)nn(CC(F)(F)F)c23)c([C@H](Cc2cc(F)cc(F)c2)NC(=O)Cn2nc(C(F)(F)F)c3c2C(F)(F)[C@@H]2C[C@H]32)n1)S(C)(=O)=O = 100

###

details: 0.1N HCl, 1.0% DMSO, 24-hour incubation at ambient temperature, maximum theoretical 100 μM; first value of the cell
Recorded pH 2 solubility for the following compounds

Look over these answered cases.
CC(C)(C#Cc1ccc(-c2ccc(Cl)c3c(N(C(=O)C(=O)N[C@@H](CC(=O)O)C(=O)O)S(C)(=O)=O)nn(CC(F)(F)F)c23)c([C@H](Cc2cc(F)cc(F)c2)NC(=O)Cn2nc(C(F)(F)F)c3c2C(F)(F)[C@@H]2C[C@H]32)n1)S(C)(=O)=O = 10/10 μM
CC(C)(C#Cc1ccc(-c2ccc(Cl)c3c(N(C(=O)O[C@@H](CC(=O)O)C(=O)O)S(C)(=O)=O)nn(CC(F)(F)F)c23)c([C@H](Cc2cc(F)cc(F)c2)NC(=O)Cn2nc(C(F)(F)F)c3c2C(F)(F)[C@@H]2C[C@H]32)n1)S(C)(=O)=O = 1/1 μM
CCOC(=O)C(=O)N(c1nn(CC(F)(F)F)c2c(-c3ccc(C#CC(C)(C)S(C)(=O)=O)nc3[C@H](Cc3cc(F)cc(F)c3)NC(=O)Cn3nc(C(F)(F)F)c4c3C(F)(F)[C@@H]3C[C@H]43)ccc(Cl)c12)S(C)(=O)=O = 1/1 μM

Given CC(C)(CO)C(=O)OCN(c1nn(CC(F)(F)F)c2c(-c3ccc(C#CC(C)(C)S(C)(=O)=O)nc3[C@H](Cc3cc(F)cc(F)c3)NC(=O)Cn3nc(C(F)(F)F)c4c3C(F)(F)[C@@H]3C[C@H]43)ccc(Cl)c12)S(C)(=O)=O , state its recorded pH 2 solubility.
1/1 μM

###

details: 1×PBS buffer (pH 7.4), 1.0% DMSO, 24-hour incubation at ambient temperature, maximum theoretical 100 μM; second value of the cell
observation type: pH 7 solubility

Known results for compounds:
COC(=O)C(=O)N(c1nn(CC(F)(F)F)c2c(-c3ccc(C#CC(C)(C)S(C)(=O)=O)nc3[C@H](Cc3cc(F)cc(F)c3)NC(=O)Cn3nc(C(F)(F)F)c4c3C(F)(F)[C@@H]3C[C@H]43)ccc(Cl)c12)S(C)(=O)=O [Compound 15] = 1/1 μM
CN(CC(C)(C)O)C(=O)N(c1nn(CC(F)(F)F)c2c(-c3ccc(C#CC(C)(C)S(C)(=O)=O)nc3[C@H](Cc3cc(F)cc(F)c3)NC(=O)Cn3nc(C(F)(F)F)c4c3C(F)(F)[C@@H]3C[C@H]43)ccc(Cl)c12)S(C)(=O)=O [Compound 47] = 1/1 μM

Pending compound:
// returns reported pH 7 solubility for input CC(C)(O)CNC(=O)N(c1nn(CC(F)(F)F)c2c(-c3ccc(C#CC(C)(C)S(C)(=O)=O)nc3[C@H](Cc3cc(F)cc(F)c3)NC(=O)Cn3nc(C(F)(F)F)c4c3C(F)(F)[C@@H]3C[C@H]43)ccc(Cl)c12)S(C)(=O)=O [Compound 32]
1/1 μM

###

settings: 0.1N HCl, 1.0% DMSO, 24-hour incubation at ambient temperature, maximum theoretical 100 μM; first value of the cell
observation type: pH 2 solubility

CC(C)(O)CNC(=O)N(c1nn(CC(F)(F)F)c2c(-c3ccc(C#CC(C)(C)S(C)(=O)=O)nc3[C@H](Cc3cc(F)cc(F)c3)NC(=O)Cn3nc(C(F)(F)F)c4c3C(F)(F)[C@@H]3C[C@H]43)ccc(Cl)c12)S(C)(=O)=O [Compound 32] = 1/1 μM
C[C@H](OC(=O)N(c1nn(CC(F)(F)F)c2c(-c3ccc(C#CC(C)(C)S(C)(=O)=O)nc3[C@H](Cc3cc(F)cc(F)c3)NC(=O)Cn3nc(C(F)(F)F)c4c3C(F)(F)[C@@H]3C[C@H]43)ccc(Cl)c12)S(C)(=O)=O)C(=O)O [Compound 115] = 1/1 μM
CN(CC(C)(C)O)C(=O)N(c1nn(CC(F)(F)F)c2c(-c3ccc(C#CC(C)(C)S(C)(=O)=O)nc3[C@H](Cc3cc(F)cc(F)c3)NC(=O)Cn3nc(C(F)(F)F)c4c3C(F)(F)[C@@H]3C[C@H]43)ccc(Cl)c12)S(C)(=O)=O [Compound 47] = 1/1 μM

# context switch: different compound, same pH 2 solubility
I have this compound here, CC(=O)N(c1nn(CC(F)(F)F)c2c(-c3ccc(C#CC(C)(C)S(C)(=O)=O)nc3[C@H](Cc3cc(F)cc(F)c3)NC(=O)Cn3nc(C(F)(F)F)c4c3C(F)(F)[C@@H]3C[C@H]43)ccc(Cl)c12)S(C)(=O)=O [Compound 1] , and I need its recorded pH 2 solubility.
1/1 μM

These measurements were taken from patent US12404262B2.
